# System: YBR084C-A
# METHOD_DESCRIPTION: GFP reporter expression in TORC1-bypass yeast, mechanism study for yeast TOR pathway modulator project, S. cerevisiae, TORC1 bypass vs wild-type strains (AID 504479)
# APPLIED_CONDITIONS: fluorescence ratio vs DMSO, at 10 µM
MEASUREMENT_KIND: GFP ratio vs DMSO
One number for each entry.

1) O=C(NC(=S)NNC(=O)c1cnccn1)c1ccc(F)cc1    0.877
2) CC1=NN(c2ccccc2)C(=O)C1C(c1ccccc1[N+](=O)[O-])C(C#N)C#N (stereo not drawn)    1.09
3) O=C1ON=C(c2ccccc2)/C1=C/c1ccco1    0.965
4) CSC1=NS(=O)(=O)c2c(C)nn(C)c2S1    0.887
5) COc1ccc([N+](=O)[O-])c(S(=O)(=O)c2ccccc2)n1    0.967
6) O=C(Oc1ccnc2cc(Cl)ccc12)N1CCCCCC1    1.19
7) Cc1ccc(C(c2cc(Cl)c3cccnc3c2O)N2CCN(C)CC2)cc1 (stereo not drawn)    0.938
8) O=C(OCn1ncc(Br)c(Br)c1=O)c1c(F)cccc1F    1

For each of the molecules below, state GFP ratio vs DMSO.
1. c1ccc(-c2cccc(-c3ccccn3)n2)nc1
2. COc1ccc(C(=O)NNC(=S)NC(=O)/C=C/c2cccs2)cc1
3. O=C(OCC(=O)N1CCN(C(=O)c2ccco2)CC1)c1cc(-c2cccc(Br)c2)nc2ccccc12
4. O=C(Oc1c(Cl)cc(Cl)c2cccnc12)c1cccc([N+](=O)[O-])c1
5. Cc1ccc(/C=C2/C(=O)ON=C2c2ccccc2)o1
6. Clc1ccc(N=c2ssnc2Cl)cc1

1. 0.926
2. 1.27
3. 0.79
4. 1.18
5. 1
6. 1.02

For each of the molecules below, state GFP ratio vs DMSO.
1. CC(C)(C)C(=O)NC(=S)NNC(=O)c1ccc(-c2ccccc2)cc1
2. N/C(Cc1ccc(Cl)cc1)=N\OC(=O)c1cccc2ccccc12

1.25
0.76

For each of the molecules below, state GFP ratio vs DMSO.
1. CC(Oc1ccc(Cl)cc1)C(=O)NNC(=S)NC(=O)c1ccco1 (stereo not drawn)
2. O=[N+]([O-])c1ccc(O)c2ncccc12
3. C/C(=N\NC(=O)c1ccc(C(C)(C)C)cc1)c1ccccn1
4. CCCCC(=O)NNC(=S)NC(=O)c1ccc(C)cc1
5. Cc1ccc(S(=O)(=O)c2ccc([N+](=O)[O-])cn2)cc1
6. O=[N+]([O-])c1cc(Cl)c2cccnc2c1O
7. Cc1ccc(S(=O)(=O)c2ncccc2[N+](=O)[O-])cc1

[1.15, 1.23, 1.03, 1.27, 0.929, 1.04, 1.04]

For each of the molecules below, state GFP ratio vs DMSO.
1. O=C1ON=C(c2ccccc2)/C1=C\c1ccco1
2. CC(C)(C)C(=O)C(Cl)C(=O)Nc1ccccc1 (stereo not drawn)
3. CC(=O)c1ccc(N2CCN(C(=O)c3ccc(Br)cc3)CC2)c(F)c1
4. CCOC(=O)c1c(C)oc2c1c(C(c1cccnc1)N1CCOCC1)c(O)c1ccccc12 (stereo not drawn)
5. O=[N+]([O-])c1ccc(S(=O)(=O)c2cccc(C(F)(F)F)c2)nc1

[0.947, 0.885, 1.28, 0.914, 0.902]

----------
# Tested on: YNL142W
# METHOD_DESCRIPTION: GFP reporter expression in TORC1-bypass yeast, mechanism study for yeast TOR pathway modulator project, S. cerevisiae, TORC1 bypass vs wild-type strains (AID 504479)
# APPLIED_CONDITIONS: fluorescence ratio vs DMSO, at 10 µM
MEASUREMENT_KIND: GFP ratio vs DMSO
One number for each entry.

Consider the reported GFP ratio vs DMSO for these molecules:
1) N/C(Cc1ccc(Cl)cc1)=N\OC(=O)c1cccc2ccccc12    1.23
2) O=C(OCn1ncc(Br)c(Br)c1=O)c1ccc(F)cc1    1.03
3) O=C(NC(=S)NNC(=O)c1cnccn1)c1ccc(F)cc1    1.07
4) O=C(Oc1c(Cl)cc(Cl)c2cccnc12)c1ccco1    1.07
5) Cc1ccc(S(=O)(=O)c2ncccc2[N+](=O)[O-])cc1    0.788

For each of the molecules below, state GFP ratio vs DMSO.
1. O=C(Oc1c(Cl)cc(Cl)c2cccnc12)c1cccc([N+](=O)[O-])c1
2. O=C(OCC(=O)N1CCN(C(=O)c2ccco2)CC1)c1cc(-c2cccc(Br)c2)nc2ccccc12
3. CC(C)(C)n1nc(-c2ccc(Cl)cc2)c2c(N)ncnc21
4. CCCOc1ccc(C(=O)NNC(=S)NC(=O)CC)cc1

[0.95, 1.09, 1.04, 1.24]

For each of the molecules below, state GFP ratio vs DMSO.
1. CC(=O)c1ccc(N2CCN(C(=O)c3ccc(Br)cc3)CC2)c(F)c1
2. CC(=O)SC(C[N+](=O)[O-])c1cn(C(C)=O)c2ccccc12 (configuration not stated)
3. CC1=NN(c2ccccc2)C(=O)C1C(c1ccccc1[N+](=O)[O-])C(C#N)C#N (configuration not stated)

1.3
0.743
1.03

For each of the molecules below, state GFP ratio vs DMSO.
1. c1ccc(-c2cccc(-c3ccccn3)n2)nc1
2. CSC1=NS(=O)(=O)c2c(C)nn(C)c2S1

[0.847, 0.972]

For each of the molecules below, state GFP ratio vs DMSO.
1. Cc1ccc(C2=NOC(=O)/C2=C\c2ccc(C)o2)cc1
2. CCCCC(=O)NNC(=S)NC(=O)c1ccc(C)cc1
3. CC(C)(C)C(=O)C(Cl)C(=O)Nc1ccccc1 (configuration not stated)
4. Cc1ccc(S(=O)(=O)c2ccc([N+](=O)[O-])cn2)cc1

1. 1.24
2. 1.22
3. 1.24
4. 1.29

----------
Could you please report measured GFP ratio vs DMSO for the items listed next?
# Test system: YNL142W
# METHOD_DESCRIPTION: GFP reporter expression in TORC1-bypass yeast, mechanism study for yeast TOR pathway modulator project, S. cerevisiae, TORC1 bypass vs wild-type strains (AID 504479)
# APPLIED_CONDITIONS: fluorescence ratio vs DMSO, MEP2-GFP in TORC1 bypass strain, at 10 µM, stronger effect = higher value
One number for each entry.

1) O=C(NC(=S)NNC(=O)c1cnccn1)c1ccc(F)cc1    0.971
2) O=C(Oc1c(Cl)cc(Cl)c2cccnc12)c1cccc([N+](=O)[O-])c1    1.01
3) O=[N+]([O-])c1ccc(O)c2ncccc12    1.06

# next compound below
Query: GFP ratio vs DMSO; subject: CC(Oc1ccc(Cl)cc1)C(=O)NNC(=S)NC(=O)c1ccco1 (centres undefined)
1.2

----------
# System: YNL142W
# METHOD_DESCRIPTION: GFP reporter expression in TORC1-bypass yeast, mechanism study for yeast TOR pathway modulator project, S. cerevisiae, TORC1 bypass vs wild-type strains (AID 504479)
# APPLIED_CONDITIONS: fluorescence ratio vs DMSO, MEP2-GFP in TORC1 bypass strain, at 10 µM, stronger effect = higher value
MEASUREMENT_KIND: GFP ratio vs DMSO
Answers are plain numbers.

Consider the reported GFP ratio vs DMSO for these molecules:
1) O=S(=O)(CCN(CCS(=O)(=O)C(F)(F)F)CC1CCCO1)C(F)(F)F (stereo unspecified)    0.942
2) O=[N+]([O-])c1cc(Cl)c2cccnc2c1O    0.964

For each of the molecules below, state GFP ratio vs DMSO.
1. Cc1ccc(/C=C2/C(=O)ON=C2c2ccccc2)o1
2. Cc1ccc(C(=O)NNC(=S)NC(=O)COc2ccccc2)cc1
3. Cc1cc(C(=O)Nc2nc(-c3ccccn3)cs2)ccc1[N+](=O)[O-]

1. 1.21
2. 1.25
3. 1.04

For each of the molecules below, state GFP ratio vs DMSO.
1. O=C(Oc1ccnc2cc(Cl)ccc12)N1CCCCCC1
2. CCCOc1ccc(C(=O)NNC(=S)NC(=O)CC)cc1
3. COc1ccc([N+](=O)[O-])c(S(=O)(=O)c2ccccc2)n1
4. O=C(OCn1ncc(Br)c(Br)c1=O)c1ccc(F)cc1
5. CSC1=NS(=O)(=O)c2c(C)nn(C)c2S1
6. O=[N+]([O-])c1cc(S(=O)(=O)C(F)(F)F)ccc1Sc1nc2ccccc2s1

0.897
1.3
0.877
0.918
0.862
0.92

----------
# System: YBR084C-A
# METHOD_DESCRIPTION: GFP reporter expression in TORC1-bypass yeast, mechanism study for yeast TOR pathway modulator project, S. cerevisiae, TORC1 bypass vs wild-type strains (AID 504479)
# APPLIED_CONDITIONS: fluorescence ratio vs DMSO, at 10 µM
Respond with y for GFP ratio vs DMSO values of 0.8 and above, n for values below.

A selection of reference data follows.
1) CCc1ccc(OCC(=O)NNC(=S)NC(=O)C2CC2)c(Br)c1    y
2) O=[N+]([O-])c1cc(O)c2ncccc2c1    y
3) COc1ccc(/C=C/C(=O)NC(=S)NNC(=O)c2cnccn2)cc1    y
4) CCSc1nnc(NC(=O)c2ccccn2)s1    y
5) Cn1ncc(S(=O)(=O)Cc2ccccc2)c(Cl)c1=O    n

Say whether CC(C)(C)n1nc(-c2ccc(Cl)cc2)c2c(N)ncnc21 shows GFP ratio vs DMSO of 0.8 or more.
n

How about this compound: CO[C@H]1C[C@@H]2CC[C@@H](C)[C@@](O)(O2)C(=O)C(=O)N2CCCC[C@H]2C(=O)O[C@H]([C@H](C)C[C@@H]2CC[C@@H](O)[C@H](OC)C2)CC(=O)[C@H](C)/C=C(\C)[C@@H](O)[C@@H](OC)C(=O)[C@H](C)C[C@H](C)/C=C/C=C/C=C/1C
n

How about this compound: COc1ccc([N+](=O)[O-])c(S(=O)(=O)c2ccc(Cl)cc2)n1
y

How about this compound: CN1CCN(C(c2ccc(C(F)(F)F)cc2)c2ccc3cccnc3c2O)CC1 (centres undefined)
y
